Origin of values: ChEMBL document CHEMBL5316337

Tested on: Klebsiella pneumoniae
ASSAY EXPLANATION: Antibacterial activity against polymyxin-susceptible Klebsiella pneumoniae ATCC 700721 clinical isolates assessed as reduction in bacterial growth by broth microdilution method
Assay type: functional
REPORTED PROPERTY: MIC (µg/mL)
One number for each entry, in µg/mL.

Q: Send back Klebsiella pneumoniae MIC of CC[C@H](C)CCCCC(=O)N[C@@H](CCN)C(=O)N[C@H](C(=O)N[C@@H](CCN)C(=O)N[C@H]1CCNC(=O)[C@H](Cc2c[nH]cn2)NC(=O)[C@H](CCN)NC(=O)[C@H](CCN)NC(=O)[C@H](CC(C)C)NC(=O)[C@@H](Cc2ccccc2)NC(=O)[C@H](CCN)NC1=O)[C@@H](C)O only.
Result: 32
